TESTED SYSTEM: SIRT1 (Homo sapiens)
Sequence (Q96EB6 1-747): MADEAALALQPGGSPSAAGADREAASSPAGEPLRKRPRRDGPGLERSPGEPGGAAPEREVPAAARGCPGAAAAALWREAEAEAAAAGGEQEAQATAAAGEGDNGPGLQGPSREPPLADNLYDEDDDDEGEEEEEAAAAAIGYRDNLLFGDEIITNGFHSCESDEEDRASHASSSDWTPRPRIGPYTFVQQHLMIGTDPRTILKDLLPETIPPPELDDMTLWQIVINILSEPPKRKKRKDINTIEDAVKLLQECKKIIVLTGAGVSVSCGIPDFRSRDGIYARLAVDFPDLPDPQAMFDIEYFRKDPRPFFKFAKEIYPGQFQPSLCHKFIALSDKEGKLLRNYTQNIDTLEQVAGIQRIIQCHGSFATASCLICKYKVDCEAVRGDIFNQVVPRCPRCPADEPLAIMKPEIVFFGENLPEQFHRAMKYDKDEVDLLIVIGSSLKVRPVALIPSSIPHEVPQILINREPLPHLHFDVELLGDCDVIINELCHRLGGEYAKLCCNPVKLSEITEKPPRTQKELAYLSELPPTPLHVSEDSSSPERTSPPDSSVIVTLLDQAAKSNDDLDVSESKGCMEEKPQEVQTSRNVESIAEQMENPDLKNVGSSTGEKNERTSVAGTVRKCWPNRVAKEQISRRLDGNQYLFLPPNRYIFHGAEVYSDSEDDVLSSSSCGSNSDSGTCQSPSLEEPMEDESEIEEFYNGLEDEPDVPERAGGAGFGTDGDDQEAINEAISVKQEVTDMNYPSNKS
ASSAY OVERVIEW: Mass spectrometry based assay to identify modulators of SIRT1 activity (deacetylation of p53-based acetylated peptide)
Assay type: biochemical
CONDITION SET: 10 nM SIRT1, 0.5 μM peptide substrate, 120 μM βNAD+, 25 minutes at 25° C.
RECORDED ENDPOINT: % Fold Act. (percent maximum fold activation)

Cc1nc(C)c(-c2nc3c(NC(=O)c4cnccn4)cccc3c(=O)n2C)s1 [Compound 287] ... A (Fold activation>200%)
Cc1cc(NC(=O)c2cccc3c(=O)n(C)c(-c4cccc(C(F)(F)F)c4)nc23)n(C)n1 [Compound 295] ... B (Fold Activation<200%)
Cn1cnc(C(=O)Nc2cccc3c(=O)n(C)c(-c4cccc(C(F)(F)F)c4)nc23)c1 [Compound 246] ... A (Fold activation>200%)
Cn1c(-c2ccncc2)nc2c(C(=O)Nc3ccccn3)cccc2c1=O [Compound 223] ... B (Fold Activation<200%)

---

TESTED SYSTEM: SIRT1 (Homo sapiens, UniProt Q96EB6)
ASSAY OVERVIEW: Mass spectrometry based assay to identify modulators of SIRT1 activity (deacetylation of p53-based acetylated peptide)
Assay type: biochemical
CONDITION SET: SIRT1 activation; 10 nM SIRT1, 0.5 μM peptide substrate, 120 μM βNAD+, 25 minutes at 25° C.
RECORDED ENDPOINT: EC1.5 μM

O=C(Nc1cccc2c(=O)cc(-c3cccc(C(F)(F)F)c3)[nH]c12)c1cccc(CN2CCOCC2)n1 ... A (EC1.5<1.0 μM)
Cn1c(-c2ccc(S(C)(=O)=O)cc2)nc2c(C(=O)Nc3ccccn3)cccc2c1=O ... C (EC1.5>25 μM)
Cn1c(-c2cccc(C(F)(F)F)c2)nc2c(C(=O)Nc3ccccn3)cccc2c1=O ... A (EC1.5<1.0 μM)
Cn1c(-c2ccc(C#N)cc2)nc2c(C(=O)Nc3ccccn3)cccc2c1=O ... C (EC1.5>25 μM)
Cn1c(-c2cccc(C(F)(F)F)c2)nc2c(C(=O)Nc3ccnc(N4CCCC4)c3)cccc2c1=O ... A (EC1.5<1.0 μM)

Request: I would be grateful if you could share the reported EC1.5 μM for CCc1nnc(NC(=O)c2cccc3c(=O)n(C)c(-c4cccc(C(F)(F)F)c4)nc23)s1 .
Response: A (EC1.5<1.0 μM)
